Assay: clinical
Conditions: female, human, in vivo, po, 0.06 mg
readoutLabel: Tmax (h)
Report the value in h with no unit label.

The reported Tmax of the molecule `C#C[C@]1(O)CC[C@H]2[C@@H]3CCc4cc(O)ccc4[C@H]3CC[C@@]21C` was 1.79

====

Test: clinical
Details: both, human, in vivo, po, 100 mg
readoutLabel: AUC(0-t) (ng·h/mL)
Write it as a number; the unit ng·h/mL goes unstated.

The recorded AUC(0-t) for entry NS(=O)(=O)c1cc2c(cc1Cl)NCNS2(=O)=O [Hydrochlorothiazide, hydrochlorothiazide] equals 2030

====

Assay: clinical
Details: both, human, in vivo, po, 850 mg
readoutLabel: AUC(0-t)
Could you give the number and then its unit, please?

AUC(0-t) for `CN(C)C(=N)N=C(N)N` is 5500 ng·h/mL

====

Assay: clinical
Conditions: both, human, in vivo, po
readoutLabel: Tmax (h)
# unit: h | format: bare number

Form field Tmax, entry NS(=O)(=O)c1cc2c(cc1Cl)NCNS2(=O)=O [Hydrochlorothiazide, hydrochlorothiazide] : 4
